From: patent US20210340548A1

This section presents binders with their documented Ub-ELuc luciferase, Light, Dox 75 ng/mL values.
biological target: Cry2 PHR (L348F)-p65AD-NLSx2 fusion construct as released from the TetR (I194T, 1-206)-CIB1 (-NLS)-T2A-Cry2 PHR (L348F)-p65AD-NLSx2 fusion construct; assay: cell-based or functional assay
Sequence (Q96524 other isoform, or with tags, fused parts or gaps L348F I194T L348F L348F I194T L348F): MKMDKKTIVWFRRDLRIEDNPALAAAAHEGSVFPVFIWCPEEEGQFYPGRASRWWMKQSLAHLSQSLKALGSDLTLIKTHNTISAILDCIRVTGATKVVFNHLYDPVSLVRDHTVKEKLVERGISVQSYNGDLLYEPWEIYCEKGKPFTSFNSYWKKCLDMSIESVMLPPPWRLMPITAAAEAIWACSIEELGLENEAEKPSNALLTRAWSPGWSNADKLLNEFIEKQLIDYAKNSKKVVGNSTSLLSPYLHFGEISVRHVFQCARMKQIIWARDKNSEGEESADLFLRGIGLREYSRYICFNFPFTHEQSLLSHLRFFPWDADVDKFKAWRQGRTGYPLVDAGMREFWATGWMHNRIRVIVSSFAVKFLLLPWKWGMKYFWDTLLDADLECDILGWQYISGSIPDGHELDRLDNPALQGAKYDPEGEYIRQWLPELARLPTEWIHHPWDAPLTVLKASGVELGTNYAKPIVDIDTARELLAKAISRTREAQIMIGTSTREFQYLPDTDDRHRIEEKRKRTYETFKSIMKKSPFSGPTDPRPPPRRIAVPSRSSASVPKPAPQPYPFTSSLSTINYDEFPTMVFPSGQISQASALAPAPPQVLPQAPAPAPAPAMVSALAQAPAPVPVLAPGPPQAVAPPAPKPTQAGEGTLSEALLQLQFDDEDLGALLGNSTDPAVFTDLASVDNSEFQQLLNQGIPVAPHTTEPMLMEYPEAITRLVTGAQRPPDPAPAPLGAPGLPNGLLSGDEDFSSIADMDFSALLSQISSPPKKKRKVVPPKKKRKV
Experimental endpoint: Ub-ELuc luciferase, Light, Dox 75 ng/mL (relative)

>  <Binder>
rTetR (I194T, V16 mutation, 1-206)-CIB1 (-NLS) from the T2A construct (protein, part only; not given: Leftover T2A residues, part only) chain, part: MARLDKSKIINSALELLNGVGIEGLTTRKLAQKLGVEQPTLYWHVKNKRALLDALPIEMLDRHHTHSCPLEGESWQDFLRNNAKSYRCALLSHRDGAKVHLGTRPTEKQYETLENQLAFLCQQGFSLENALYALSAVGHFTLGCVLEEQEHQVAKEERETPTTDSMPPLLKQAIELFDRQGAEPAFLFGLELITCGLEKQLKCESGSPKKKHMEFNGAIGGDLLLNFPDMSVLERQRAHLKYLNPTFDSPLAGFFADSSMITGGEMDSYLSTAGLNLPMMYGETTVEGDSRLSISPETTLGTGNFKAAKFDTETKDCNEAAKKMTMNRDDLVEEGEEEKSKITEQNNGSTKSIKKMKHKAKKEENNFSNDSSKVTKELEKTDYI

>  <Recorded value>
76.7

$$$$
>  <Binder>
TetR (I194T, 1-206)-CIB1 (-NLS) fusion construct as released from the TetR (I194T, 1-206)-CIB1 (-NLS)-T2A-Cry2 PHR (L348F)-p65AD-NLSx2 fusion construct (protein, part only, residual T2A residues at C-terminus) MARLDKSKVINSALELLNEVGIEGLTTRKLAQKLGVEQPTLYWHVKNKRALLDALAIEMLDRHHTHFCPLEGESWQDFLRNNAKSFRCALLSHRDGAKVHLGTRPTEKQYETLENQLAFLCQQGFSLENALYALSAVGHFTLGCVLEDQEHQVAKEERETPTTDSMPPLLRQAIELFDHQGAEPAFLFGLELITCGLEKQLKCESGSPKKKHMEFNGAIGGDLLLNFPDMSVLERQRAHLKYLNPTFDSPLAGFFADSSMITGGEMDSYLSTAGLNLPMMYGETTVEGDSRLSISPETTLGTGNFKAAKFDTETKDCNEAAKKMTMNRDDLVEEGEEEKSKITEQNNGSTKSIKKMKHKAKKEENNFSNDSSKVTKELEKTDYI

>  <Recorded value>
0.1

$$$$
>  <Binder>
rTetR (I194T, rtTA mutation, 1-206)-CIB1 (-NLS) from the T2A construct (protein, part only; not given: Leftover T2A residues, part only) chain, part: MARLDKSKVINSALELLNEVGIEGLTTRKLAQKLGVEQPTLYWHVKNKRALLDALAIEMLDRHHTHFCPLKGESWQDFLRNNAKSFRCALLSHRNGAKVHSDTRPTEKQYETLENQLAFLCQQGFSLENALYALSAVGHFTLGCVLEDQEHQVAKEERETPTTDSMPPLLRQAIELFDHQGAEPAFLFGLELITCGLEKQLKCESGSPKKKHMEFNGAIGGDLLLNFPDMSVLERQRAHLKYLNPTFDSPLAGFFADSSMITGGEMDSYLSTAGLNLPMMYGETTVEGDSRLSISPETTLGTGNFKAAKFDTETKDCNEAAKKMTMNRDDLVEEGEEEKSKITEQNNGSTKSIKKMKHKAKKEENNFSNDSSKVTKELEKTDYI

>  <Recorded value>
0.4

$$$$
